Measured target: purified human MMP-12 enzyme (Homo sapiens, UniProt P39900)
Sequence (P39900 106-470): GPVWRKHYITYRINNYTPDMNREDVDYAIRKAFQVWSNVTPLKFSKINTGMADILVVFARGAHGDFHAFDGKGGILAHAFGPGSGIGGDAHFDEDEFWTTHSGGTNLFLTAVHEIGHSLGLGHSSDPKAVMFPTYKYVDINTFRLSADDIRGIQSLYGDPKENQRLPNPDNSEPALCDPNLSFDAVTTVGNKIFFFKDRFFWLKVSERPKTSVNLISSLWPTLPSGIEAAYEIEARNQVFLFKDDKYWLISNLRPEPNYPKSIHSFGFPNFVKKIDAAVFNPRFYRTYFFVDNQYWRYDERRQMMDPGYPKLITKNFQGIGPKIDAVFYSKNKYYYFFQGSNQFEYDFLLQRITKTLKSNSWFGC
Would you kindly list IC50 for each of these compounds?
Number in nM, nothing else.

Q: Return reported IC50 for target or system purified human MMP-12 enzyme (Homo sapiens, UniProt P39900), item CC(C)Cc1ncc(-c2ccc3c(c2)oc2ccc(S(=O)(=O)N[C@@H](C(=O)O)C(C)C)cc23)s1 .
Ans: 3.4

Q: Find IC50 for CC(C)[C@@H](NS(=O)(=O)c1ccc2oc3cc(-c4noc(CC(C)(C)C)n4)ccc3c2c1)C(=O)O on purified human MMP-12 enzyme (Homo sapiens, UniProt P39900) and write it down.
Ans: 4.5

Q: Return reported IC50 for target or system purified human MMP-12 enzyme (Homo sapiens, UniProt P39900), item CC(C)Cc1ncc(-c2ccc3c(c2)oc2cc(S(=O)(=O)N[C@H](C(=O)O)C(C)C)ccc23)s1 .
Ans: 7.8

Q: Look up purified human MMP-12 enzyme (Homo sapiens, UniProt P39900) data: IC50 of CC(C)[C@H](NS(=O)(=O)c1ccc2c(c1)oc1cc(-c3ccc(C(C)(C)C)o3)ccc12)C(=O)O , then report it.
Ans: 3.4

Q: Write down the reported IC50 (system: purified human MMP-12 enzyme (Homo sapiens, UniProt P39900)) of CC(C)[C@H](NS(=O)(=O)c1ccc2c(c1)oc1ccc(-c3oc(Cl)cc3Cl)cc12)C(=O)O
Ans: 2.5

Q: Quote purified human MMP-12 enzyme (Homo sapiens, UniProt P39900) IC50 for entry CC(C)CCn1cc(-c2ccc3oc4cc(S(=O)(=O)N[C@H](C(=O)O)C(C)C)ccc4c3c2)cn1 .
Ans: 4

Q: Print purified human MMP-12 enzyme (Homo sapiens, UniProt P39900) IC50 for CC(C)[C@H](NS(=O)(=O)c1ccc2c(c1)oc1ccc(-c3ccc(C(=O)O)s3)cc12)C(=O)O .
Ans: 52

Q: Look up and report measured IC50 (purified human MMP-12 enzyme (Homo sapiens, UniProt P39900)) for the following compound: CC(C)[C@H](NS(=O)(=O)c1ccc2c(c1)oc1cc(-c3noc(-c4ccc(F)cc4)n3)ccc12)C(=O)O
Ans: 8.6

Q: Provide measured IC50 on purified human MMP-12 enzyme (Homo sapiens, UniProt P39900) for CC(C)[C@H](NS(=O)(=O)c1ccc2c(c1)oc1ccc(-c3noc(Cc4ccccc4)n3)cc12)C(=O)O please.
Ans: 4

Q: Determine reported IC50 for CC(C)[C@@H](NS(=O)(=O)c1ccc2oc3cc(-c4cnn(CCN5CCOCC5)c4)ccc3c2c1)C(=O)O ; test system: purified human MMP-12 enzyme (Homo sapiens, UniProt P39900).
Ans: 19

Q: Using purified human MMP-12 enzyme (Homo sapiens, UniProt P39900) as the test system, report measured IC50 of CCC(C)Cn1cc(-c2ccc3oc4cc(S(=O)(=O)N[C@H](C(=O)O)C(C)C)ccc4c3c2)cn1 (some centres unmarked) .
Ans: 15

Q: Quote IC50 with test system purified human MMP-12 enzyme (Homo sapiens, UniProt P39900) for CC(C)[C@@H](NS(=O)(=O)c1ccc2oc3cc(/C=C/C4CCCCC4)ccc3c2c1)C(=O)O
Ans: 59

Q: Provide purified human MMP-12 enzyme (Homo sapiens, UniProt P39900) IC50 reading for CC(C)[C@@H](NS(=O)(=O)c1ccc2oc3cc(-c4nc5c(F)cccc5s4)ccc3c2c1)C(=O)O .
Ans: 15

Q: Find the measured IC50 of Cc1n[nH]c(C)c1-c1ccc2oc3cc(S(=O)(=O)N[C@H](C(=O)O)C(C)C)ccc3c2c1 with purified human MMP-12 enzyme (Homo sapiens, UniProt P39900) as test system.
Ans: 44

Q: Enter recorded IC50 with purified human MMP-12 enzyme (Homo sapiens, UniProt P39900) for CC(C)[C@H](NS(=O)(=O)c1ccc2c(c1)oc1cc(-c3noc(C4CC4)n3)ccc12)C(=O)O here.
Ans: 5.5

Q: Enter recorded IC50 with purified human MMP-12 enzyme (Homo sapiens, UniProt P39900) for CC(C)Cc1nc(-c2ccc3c(c2)oc2ccc(S(=O)(=O)N[C@@H](C(=O)O)C(C)C)cc23)no1 here.
Ans: 5.3

Q: Please report IC50 with purified human MMP-12 enzyme (Homo sapiens, UniProt P39900) for item CC(C)[C@H](NS(=O)(=O)c1ccc2c(c1)sc1ccc(-c3cnn(C)c3)cc12)C(=O)O .
Ans: 2.6

Q: Look up and report IC50, with purified human MMP-12 enzyme (Homo sapiens, UniProt P39900) as system, for Cc1nc(-c2ccc3oc4cc(S(=O)(=O)N[C@H](C(=O)O)C(C)C)ccc4c3c2)sc1C
Ans: 1.6

Q: Provide IC50, system purified human MMP-12 enzyme (Homo sapiens, UniProt P39900), entry CC(C)[C@H](NS(=O)(=O)c1ccc2c(c1)oc1ccc(-c3nn[nH]n3)cc12)C(=O)O
Ans: 1900

Q: Provide IC50, recorded with purified human MMP-12 enzyme (Homo sapiens, UniProt P39900), of CCCc1ccc(-c2ccc3c(c2)oc2ccc(S(=O)(=O)N[C@H](C(=O)O)C(C)C)cc23)s1
Ans: 6.2

Q: Using purified human MMP-12 enzyme (Homo sapiens, UniProt P39900) as the test system, report measured IC50 of CC(C)[C@H](NS(=O)(=O)c1ccc2c(c1)oc1ccc(-c3sccc3CN(C)C)cc12)C(=O)O .
Ans: 228
